Data origin, for the record: ChEMBL document CHEMBL1151870

- Target: Glucose-6-phosphatase catalytic subunit 1 (Rattus norvegicus)
- Experimental protocol: Inhibition of rat liver glucose-6-phosphatase at 100 uM
Measurement label: inhibition (%)

CCOC(=O)C(C(=O)OCC)C(CC(=O)C[C@@H]1O[C@H](CO)[C@@H](O)[C@H](O)[C@H]1O)c1ccccc1 (mixture of isomers); -3.3

A: O=C(/C=C/c1cccc([N+](=O)[O-])c1)C[C@@H]1O[C@H](CO)[C@@H](O)[C@H](O)[C@H]1O
B: COc1ccc(/C=C/C(=O)C[C@@H]2O[C@H](CO)[C@@H](O)[C@H](O)[C@H]2O)cc1
[in] Compare the recorded inhibition of A and B ; state which is larger. Let me know the label of the one you choose.
[out] A
(A: 8%, B: -9.7%)
